IC50 values, listed per item
- TEST: Cytotoxicity against human HONE1 cells
- Type: functional, cell-based
Numbered stars: 1 amine (or outer) side, 2 acyl side, 3 side chain; on linkers, the order of the positions; unused ones are H or OH. Bridge positions count the residues as written; N and C are the ends. Square brackets hold non-standard residues; d marks the D form. Peptide text beside a SMILES is read from it. I, II: the chains in the order shown. Actinocin(1to9) = Cc1c2oc3c(C)ccc(C(=O)[*:2])c3nc-2c(C(=O)[*:1])c(N)c1=O; NMeV = CN[C@H](C(=O)O)C(C)C; Sar = CNCC(=O)O
Provide the reading as a plain figure in µg/mL.

| COMPOUND | MEASUREMENT TYPE | UNITS LABEL | RECORDED NUMBER |
| --- | --- | --- | --- |
| CC(=O)O[C@H](c1ccccc1)[C@H](O)[C@H]1CC=CC(=O)O1 | IC50 | µg/mL | 6.09 |
| O=C1C=CC[C@H]([C@@H](O)[C@H](Cl)c2ccccc2)O1 [6R,7R,8R-8-CHLOROGONIODIOL] | IC50 | µg/mL | 4.87 |
| CC(=O)O[C@H]([C@H](O)c1ccccc1)[C@H]1CC=CC(=O)O1 | IC50 | µg/mL | 5.69 |
| Cc1c2oc3c(C)ccc(C(=O)N[C@@H]4C(=O)N[C@H](C(C)C)C(=O)N5CCC[C@H]5C(=O)N(C)CC(=O)N(C)[C@@H](C(C)C)C(=O)O[C@@H]4C)c3nc-2c(C(=O)N[C@@H]2C(=O)N[C@H](C(C)C)C(=O)N3CCC[C@H]3C(=O)N(C)CC(=O)N(C)[C@@H](C(C)C)C(=O)O[C@@H]2C)c(N)c1=O [DACTINOMYCIN] (I: T[dV]P[Sar][NMeV] / II: T[dV]P[Sar][NMeV]; ester I:1-I:C, II:1-II:C; linker I:N-II:N via Actinocin(1to9)) | IC50 | µg/mL | 4.53 |
| O=C1C=CC[C@H]([C@@H]2O[C@H]2c2ccccc2)O1 [GONIOTHALAMIN EPOXIDE] | IC50 | µg/mL | 36.3 |

Consider the additional compound presented here.
Give a short answer stating reported IC50 for CO[C@H](c1ccccc1)[C@H](O)[C@H]1CC=CC(=O)O1 [6R,7R,8R-8-METHOXYGONIODIOL] . 240
